Give measured Emax for each item. Keep answers brief.
assay target: human sphingosine-1-phosphate receptor 1 (S1P1) (Homo sapiens (Human), UniProt P21453)
experiment summary: Inhibition of cAMP production (HTRF cAMP HiRange), S1P1 CHO-K1 cells
Format: cell-based
study conditions: CHO-K1; efficacy (SPAN) normalized to fingolimod; read-out: hS1P1 cAMP SPAN
Method: Stable clonal Chinese hamster ovary K1 (CHO-K1) cells co-expressing EA-β-arrestin2 and the human sphingosine-1-phosphate receptor 1 (NM_001400, S1P1) with a C-terminal Prolink™ tag were purchased from DiscoverX corporation (Cat #: 93-0207C2). […] Agonist-promoted G-protein responses were determined by measuring changes in intracellular cAMP using the HTRF® cAMP HiRange kit (CisBio, Cat #: 62AM6PEJ) based on time-resolved fluorescence resonance energy transfer (TR-FRET) technology. […]
Sequence (P21453 whole entry, looked up): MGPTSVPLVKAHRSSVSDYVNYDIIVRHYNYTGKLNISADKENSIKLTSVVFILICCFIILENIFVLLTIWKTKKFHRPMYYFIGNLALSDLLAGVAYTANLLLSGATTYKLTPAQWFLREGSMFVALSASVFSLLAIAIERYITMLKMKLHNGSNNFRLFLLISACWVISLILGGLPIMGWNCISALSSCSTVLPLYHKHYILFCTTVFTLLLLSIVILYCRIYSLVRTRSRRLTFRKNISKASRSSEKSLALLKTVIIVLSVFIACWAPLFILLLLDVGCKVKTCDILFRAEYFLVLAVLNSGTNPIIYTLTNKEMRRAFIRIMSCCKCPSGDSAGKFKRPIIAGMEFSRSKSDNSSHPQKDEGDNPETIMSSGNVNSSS

# molecule, Emax
rows = [
    ("COc1ccc(-c2nc(-c3ccc4c(c3)nnn4C(C)C)no2)cc1 [Compound 69]", "< 75%"),
]

Items follow; give Emax for each.
1. c1cc(-c2noc(-c3ccc4c(c3)nnn4C3CCCC3)n2)ccn1 [Compound 174]
2. CC(C)Oc1ccc(-c2nc(-c3ccc4c(c3)nnn4C3CCCC3)no2)cc1 [Compound 121]
3. COc1ccc2oc(-c3ccc4c(c3)nnn4CC(C)C)nc2c1 [Compound 451]
4. Cc1ccccc1-c1noc(-c2ccc3c(c2)nnn3CC(C)(C)O)n1 [Compound 139]

Resp:
1. > 75%
2. < 75%
3. < 75%
4. > 75%

Your task in this section: give Emax for each listed record.
1. Cc1ccccc1-c1cnc(-c2ccc3c(c2)nnn3C(C)C)s1 [Compound 216]
2. Cc1ccccc1Cc1noc(-c2ccc3c(c2)nnn3C(C)C)n1 [Compound 202]
3. CC(C)n1nnc2cc(-c3nc(-c4ccccn4)no3)ccc21 [Compound 241]
4. Cc1oc(-c2ccc3c(c2)nnn3C(C)C)nc1-c1ccc(Cl)cc1 [Compound 50]

Resp:
1. < 75%
2. < 75%
3. > 75%
4. < 75%

Take each entry in turn and give its Emax.
1. Cc1ccsc1-c1noc(-c2ccc3c(c2)nnn3C(C)(C)C)n1 [Compound 253]
2. CC(C)Oc1ccc(-c2nc(-c3ccc4c(c3)nnn4C3CCCC3)no2)cc1C(F)(F)F [Compound 14]
3. CC(C)n1nnc2cc(-c3nc4c(o3)-c3ccccc3CC4)ccc21 [Compound 297]
4. Cc1ccc(-c2noc(-c3ccc4c(c3)nnn4C(C)C)n2)cn1 [Compound 236]
5. Cc1cc(C)cc(-c2noc(-c3ccc4c(c3)nnn4C3CCCCC3)n2)c1 [Compound 158]
6. CC(C)n1nnc2cc(-c3nc(-c4ccccc4OC(F)(F)F)no3)ccc21 [Compound 132]

Resp:
1: > 75%; 2: < 75%; 3: > 75%; 4: < 75%; 5: < 75%; 6: > 75%

----------
assay target: human sphingosine-1-phosphate receptor 1 (S1P1) (Homo sapiens (Human))
experiment summary: β-Arrestin2 recruitment assay (PathHunter), S1P1 CHO-K1 cells
Type: cell-based
study conditions: β-arrestin2 recruitment, S1P1 CHO-K1 cells
Sequence (P21453 whole entry, looked up): as above
Sequence (P32121 whole entry partner, looked up): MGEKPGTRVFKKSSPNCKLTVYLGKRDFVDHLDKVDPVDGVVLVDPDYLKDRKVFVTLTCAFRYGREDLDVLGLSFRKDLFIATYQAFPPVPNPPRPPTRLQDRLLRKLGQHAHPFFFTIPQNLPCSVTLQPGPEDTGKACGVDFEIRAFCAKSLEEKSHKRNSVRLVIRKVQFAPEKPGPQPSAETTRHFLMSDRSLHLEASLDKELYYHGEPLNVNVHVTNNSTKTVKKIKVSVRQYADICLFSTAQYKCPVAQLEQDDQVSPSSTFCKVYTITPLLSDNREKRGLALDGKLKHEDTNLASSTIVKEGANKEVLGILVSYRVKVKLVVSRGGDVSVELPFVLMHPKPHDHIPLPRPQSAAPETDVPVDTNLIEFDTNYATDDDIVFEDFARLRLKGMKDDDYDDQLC
property label: hS1P1 B-arrestin2 pEC50

# structure smiles string, result
data = [
    ("FC(F)Oc1ccc(-c2noc(-c3ccc4c(c3)nnn4C3CCCC3)n2)cc1", "<5"),
    ("c1ccc(-c2noc(-c3ccc4[nH]nnc4c3)n2)cc1", "<5"),
    ("CC(C)n1nnc2cc(-c3noc(-c4ccc(F)cc4)n3)ccc21", "<5"),
]

Hi! Can you tell me hS1P1 B-arrestin2 pEC50 for each of these compounds?
1. CCn1nnc2cc(-c3noc(-c4ccccc4Br)n3)ccc21
2. Cc1ccccc1-c1cc(-c2ccc3c(c2)nnn3C(C)C)n(C)c1
3. CCC1(CC)CC(=O)c2cc(-c3nc(-c4ccc(C)s4)no3)ccc2O1
4. Cc1ccccc1-c1noc(-c2ccc3c(c2)nnn3C2CCCC2)n1
5. N#Cc1cc(-c2nnc(-c3ccc4[nH]cnc4c3)o2)ccc1NCC1CC1
6. CC(C)n1nnc2cc(-c3nc(-c4ccc5ccccc5n4)no3)ccc21

Resp:
1: >5; 2: >5; 3: >5; 4: >5; 5: >5; 6: <5

Req: # lookup: hS1P1 B-arrestin2 pEC50 of `Cc1cnc(-c2noc(-c3ccc4c(c3)nnn4C(C)C)n2)cn1`
Resp: <5

----------
For each record, write down the corresponding Emax.
assay target: human sphingosine-1-phosphate receptor 1 (S1P1) (Homo sapiens (Human), UniProt P21453)
experiment summary: β-Arrestin2 recruitment assay (PathHunter), S1P1 CHO-K1 cells
Assay type: cell-based
study conditions: CHO-K1; efficacy (SPAN) normalized to fingolimod; read-out: hS1P1 B-arrestin2 SPAN
Experimental: Stable clonal Chinese hamster ovary K1 (CHO-K1) cells co-expressing EA-β-arrestin2 and the human sphingosine-1-phosphate receptor 1 (NM_001400, S1P1) with a C-terminal Prolink™ tag were purchased from DiscoverX corporation (Cat #: 93-0207C2). […] Agonist-promoted β-arrestin2 recruitment to the sphingosine-1-phosphate 1 receptor was determined using the β-arrestin PathHunter®) Detection kit (DiscoverX Corporation, Cat #: 93-0001). […]

# structure smiles string, assay target, result
measured = [
    ("CCCn1nnc2cc(-c3nc(-c4cc(C)cc(C)c4)no3)ccc21", "human sphingosine-1-phosphate receptor 1 (S1P1) (Homo sapiens (Human), UniProt P21453)", "< 75%"),
    ("CC(C)Oc1ccc(-c2ccc(-c3ccc4c(c3)nnn4C(C)C)cc2)cc1C#N", "human sphingosine-1-phosphate receptor 1 (S1P1) (Homo sapiens (Human), UniProt P21453)", "< 75%"),
    ("CC(C)Nc1ccc(-c2nnc(-c3ccc4[nH]ncc4c3)o2)cc1C#N", "human sphingosine-1-phosphate receptor 1 (S1P1) (Homo sapiens (Human), UniProt P21453)", "> 75%"),
    ("CC(C)n1nnc2cc(-c3nc4ccncc4o3)ccc21", "human sphingosine-1-phosphate receptor 1 (S1P1) (Homo sapiens (Human), UniProt P21453)", "> 75%"),
    ("CC(=O)Nc1ccc(-c2noc(-c3ccc(NC(C)C)c(C#N)c3)n2)cc1", "human sphingosine-1-phosphate receptor 1 (S1P1) (Homo sapiens (Human), UniProt P21453)", "< 75%"),
    ("CNc1ccccc1-c1nc(-c2ccc3c(c2)nnn3C(C)C)no1", "human sphingosine-1-phosphate receptor 1 (S1P1) (Homo sapiens (Human), UniProt P21453)", "> 75%"),
]

Provide the reported Emax of each entry below, same order.
1. Cc1ccc2nc(-c3ccc4c(c3)nnn4C(C)C)oc2c1
2. CCC1(CC)CC(=O)c2cc(-c3nc(-c4ccncc4C(F)(F)F)no3)ccc2O1

Resp:
1. > 75%
2. > 75%

----------
Provide the recorded hS1P1 cAMP pEC50 for the entries that follow.
assay target: human sphingosine-1-phosphate receptor 1 (S1P1) (Homo sapiens (Human))
experiment summary: Inhibition of cAMP production (HTRF cAMP HiRange), S1P1 CHO-K1 cells
Type: cell-based
study conditions: inhibition of cAMP production, S1P1 CHO-K1 cells

Example entries begin here.
# molecule, assay target, hS1P1 cAMP pEC50
records = [
    ("CC(C)n1ncc2cc(-c3nc(-c4ccccc4OC(F)(F)F)no3)ccc21", "human sphingosine-1-phosphate receptor 1 (S1P1) (Homo sapiens (Human))", ">6.5"),
    ("Cc1ccccc1C(C)c1noc(-c2ccc3c(c2)nnn3C(C)C)n1 (stereo not drawn)", "human sphingosine-1-phosphate receptor 1 (S1P1) (Homo sapiens (Human))", "<6.5"),
    ("CCC1(CC)CC(=O)c2cc(-c3nc(-c4ccc5ncccc5c4)no3)ccc2O1", "human sphingosine-1-phosphate receptor 1 (S1P1) (Homo sapiens (Human))", "<6.5"),
    ("Cc1cc(C)cc(Cc2noc(-c3ccc4c(c3)nnn4C(C)C)n2)c1", "human sphingosine-1-phosphate receptor 1 (S1P1) (Homo sapiens (Human))", "<6.5"),
    ("CCC1(CC)CC(=O)c2cc(-c3nc(-c4ccncc4C)no3)ccc2O1", "human sphingosine-1-phosphate receptor 1 (S1P1) (Homo sapiens (Human))", ">6.5"),
]

Would you be so kind as to report hS1P1 cAMP pEC50 for each listed record?
1. COc1ccccc1-c1nc(-c2ccc3c(c2)nnn3C(C)(C)CO)no1
2. Cc1ccccc1-c1csc(-c2ccc3c(ccn3C(C)C)n2)n1
3. Cc1cccc2nc(-c3ccc4c(c3)nnn4CC(C)C)oc12
4. CCC1(CC)CC(=O)c2cc(-c3nc(-c4ccnc(C(F)(F)F)c4)no3)ccc2O1
5. O=C1CC2(CCCCC2)Oc2ccc(-c3nc(-c4ccncc4)no3)cc21
6. CCC1(CC)CC(=O)c2cc(-c3nc(-c4ccc(NS(C)(=O)=O)cc4)no3)ccc2O1

Resp:
<6.5
<6.5
<6.5
<6.5
<6.5
>6.5

Could you report hS1P1 cAMP pEC50 for every entry in the following list?
1. CCC1(CC)CC(=O)c2cc(-c3nc(-c4cccc(Cl)c4)no3)ccc2O1
2. CCC1(CC)CC(=O)c2cc(-c3nc(-c4ccc(NC(C)=O)cc4)no3)ccc2O1
3. COc1cccc(OC)c1-c1noc(-c2ccc3c(ccn3C(C)C)c2)n1
4. CCC1(CC)CC(=O)c2cc(-c3nc(-c4ccc(C)s4)no3)ccc2O1
5. Cc1ccccc1-c1nc(-c2ccc3c(c2)nnn3C(C)(C)CO)no1
6. O=C1CC2(CCCCC2)Oc2ccc(-c3nc(-c4cccnc4)no3)cc21
7. Brc1ccccc1-c1noc(-c2ccc3c(c2)nnn3C2CCOCC2)n1

Resp:
1: <6.5; 2: >6.5; 3: <6.5; 4: <6.5; 5: >6.5; 6: <6.5; 7: <6.5

Cited source: patent US11912693B2
